tested on: T47D; test: NCI tumour cell line growth inhibition, 48 h
Active and inactive are the calls of the source. No stated cut-off is given here; in the data, active = GI50 up to about 1.1 µM and inactive = higher.
Outcomes: active, inactive

| molecule | target-desc | class-name |
| --- | --- | --- |
| C/C(=N\O)c1ccc(Nc2nc3ccccc3c3occc23)cc1 | T47D | inactive |
| COC(=O)[C@@H]1CN(C(=O)CCc2ccccc2)C(=O)N1 | T47D | inactive |
| O=C(O)C1CC(c2ccccc2)=NN1c1ccccc1 (stereo unspecified) | T47D | inactive |
| CCC(CS(=O)(=O)O)[N+](=O)[O-] (stereo unspecified) | T47D | inactive |
| O=c1oc2ccccc2cc1/C=N/N1C(=S)N(c2ccccc2)C(=N\c2ccccc2)/C1=N/c1ccccc1 | T47D | inactive |
| CCOC(=O)c1ccc2nc(NC(=O)COC(=O)CSc3nc(C)cc(C)n3)sc2c1 | T47D | inactive |
| CC(=O)N1c2ccccc2C23CCN(C)CC4C(C)OCC(C4CC2=O)C13 (stereo unspecified) | T47D | inactive |
| O=C1N=C(S)NNC12c1ccccc1-c1ccccc12 | T47D | inactive |
| OCCCCCCOc1ccc(-c2cc(-c3ccccn3)nc(-c3ccccn3)c2)cc1 | T47D | active |
| Clc1ccc(-c2ccc(-c3nn4c(CNc5ccccc5)nnc4s3)o2)c(Cl)c1 | T47D | inactive |
| C/C(=N\[N+](C)(C)C)c1ccc(C)c(C)c1 | T47D | inactive |
| O=C1C=C(Nc2cccnc2)c2ccccc2/C1=N/O | T47D | inactive |
| Cc1cc(=O)n2c3c(c4c(cc13)c(CN(C)C)cc(=O)n4C)OC2 | T47D | inactive |
| CC(C)C1OC(/C=C/c2ccccc2)OCC1(C)C (stereo unspecified) | T47D | inactive |
| O=P1(Oc2ccccc2)N=P(c2ccccc2)(c2ccccc2)C=C(c2ccc(Cl)cc2)N1 (stereo unspecified) | T47D | inactive |
| O=C(Nn1c(-c2ccccc2)nc2ccccc2c1=O)c1ccc(CS)cc1 | T47D | inactive |
| N#Cc1ccc(Oc2nc3ccccc3nc2C(=O)O)cc1 | T47D | inactive |
| Cc1ccc(-c2nc3cc([N+](=O)[O-])ccc3[nH]2)cc1 | T47D | inactive |
| CC(C)C1(NC(=O)C2CC3c4cccc5[nH]cc(c45)CC3N(C)C2)OC2(O)C3CCCN3C(=O)C(Cc3ccccc3)N2C1=O (stereo unspecified) | T47D | inactive |
| COc1ccc(-c2oc3c(OC)c(OC)c(OC)c(O)c3c(=O)c2OC)cc1OC | T47D | inactive |
| CC(=O)c1c2c(cc3c1CC1(Cc4cc5c(cc4C1)C(=O)CCC5)C3)CCCC2 (stereo unspecified) | T47D | inactive |
| FC(F)(F)c1ccccc1C1SCC2=Nc3ccccc3CN21 (stereo unspecified) | T47D | inactive |
| CC(=O)O[C@H]1C[C@H]2[C@@H](OC(C)=O)/C=C3\C[C@](C)(C(=O)[C@H](O)C(=C1C)C2(C)C)[C@@H](O)C[C@@H]3OC(=O)[C@H](O)[C@H](c1ccccc1)N(C)C | T47D | inactive |
| O=C(/C=C/c1cccs1)c1cccc(C(=O)/C=C/c2cccs2)n1 | T47D | inactive |
| c1ccc([P+](CCN2Cc3ccccc3C2)(c2ccccc2)c2ccccc2)cc1 | T47D | inactive |
| CCOC(=O)NN(C(=O)OCC)c1ccc(/N=N/c2ccc(OC)cc2)n1C | T47D | inactive |
| COC(=O)CN1SC2(SC13C(C)(C)C(=O)C3(C)C)C(C)(C)C(=O)C2(C)C | T47D | inactive |
| C[C@]12OC(=O)[C@]3(O)CC[C@H]4[C@@H](C[C@@H](O)[C@@]5(Cl)CC=CC(=O)[C@]45C)[C@]45OCC6C(=O)O[C@@H]1C[C@@]6(C)[C@H](C4=O)[C@@]32O5 (stereo partly specified) | T47D | inactive |
| CN(C(=O)Nc1ccc(Cl)c(Cl)c1)C1CCCC[C@@H]1N1CCCC1 (stereo partly specified) | T47D | inactive |
| CCn1c(=O)c2cn[nH]c2n(C)c1=O | T47D | inactive |
| Cc1ccc(N2C(=O)C(O)=C(C(=O)C(C)(C)C)C2c2ccc([N+](=O)[O-])cc2)cc1 (stereo unspecified) | T47D | inactive |
| CNC(=S)N1CCN(C(C)=O)C1=S | T47D | inactive |
| Brc1cccc(/N=N/N2CCCC2)c1 | T47D | inactive |
| CSc1nc(SC)c2c(C)cn(C3OC(C)C(O)C(O)C3O)c2n1 (stereo unspecified) | T47D | inactive |
| Cc1c(C=C(C#N)C#N)c(=O)n(C)c(=O)n1C | T47D | inactive |
| Cn1c(=O)nc2n(-c3ccc(Cl)cc3)c3cc(Cl)ccc3nc-2c1=O | T47D | active |
| C[n+]1c(-c2ccc(/C=N/NC(=N)N/N=C/c3ccc(-c4cn5cc(Cl)ccc5[n+]4C)cc3)cc2)cn2cc(Cl)ccc21 | T47D | inactive |
| CCC(C)C(=O)OCC(=O)c1ccc(-c2ccccc2)cc1 (stereo unspecified) | T47D | inactive |
| O=C(Nc1nnc(-c2c(Cl)c(Cl)c(Cl)c(Cl)c2-c2nc3cc(C(=O)c4ccccc4)ccc3[nH]2)o1)c1ccccc1 | T47D | inactive |
| Cc1cc(C)c(O)c(CN2CCN(C(C)C)CCN(C(C)C)CC2)c1 | T47D | inactive |
| CC(=O)Oc1cc(S(=O)(=O)Nc2n[nH]c(Nc3ccc(C)cc3)n2)c(S)cc1Cl | T47D | inactive |
